Values from ChEMBL document CHEMBL4417631

Overview of reported IC50 across a group of compounds:
TEST SYSTEM: UniProt:Q5VWK5
Sequence (Q5VWK5 whole entry): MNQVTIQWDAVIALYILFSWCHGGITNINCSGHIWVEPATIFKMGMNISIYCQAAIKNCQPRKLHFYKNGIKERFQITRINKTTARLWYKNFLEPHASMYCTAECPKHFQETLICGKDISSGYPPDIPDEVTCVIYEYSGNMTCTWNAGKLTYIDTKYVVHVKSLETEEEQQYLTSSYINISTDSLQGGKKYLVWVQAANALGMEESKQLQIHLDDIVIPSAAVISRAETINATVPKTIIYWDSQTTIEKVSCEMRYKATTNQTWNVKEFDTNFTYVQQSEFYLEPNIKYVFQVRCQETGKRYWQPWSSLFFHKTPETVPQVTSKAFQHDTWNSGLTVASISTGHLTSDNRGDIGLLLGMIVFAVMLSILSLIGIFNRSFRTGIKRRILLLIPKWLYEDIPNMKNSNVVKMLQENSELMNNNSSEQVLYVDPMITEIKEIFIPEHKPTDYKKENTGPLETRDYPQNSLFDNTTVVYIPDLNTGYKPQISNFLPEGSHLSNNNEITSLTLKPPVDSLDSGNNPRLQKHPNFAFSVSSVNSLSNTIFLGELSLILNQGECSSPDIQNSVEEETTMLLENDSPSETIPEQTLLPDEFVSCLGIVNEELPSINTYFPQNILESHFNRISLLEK
TEST NAME: Inhibition of interleukin-23 binding to human interleukin-23 receptor incubated for 2 hrs by competitive binding ELISA
*1 amine or outer side, *2 acyl side, *3 side chain or, on linkers, in order; H or OH if unused. Where a SMILES comes first, the peptide text is derived from it. Bridges are numbered along the chain shown (N, C = ends). [ ]: non-standard residue; d: D form. Abu(4-yl) = O=C([C@H](CC[*:3])N[*:1])[*:2]; 2Nal = N[C@@H](Cc1ccc2ccccc2c1)C(=O)O; AEF = NCCOc1ccc(C[C@H](N)C(=O)O)cc1; αMeK = C[C@](N)(CCCCN)C(=O)O

// query Provide IC50, recorded with UniProt:Q5VWK5, of CC(=O)NCCCC[C@](C)(NC(=O)[C@H](Cc1ccc2ccccc2c1)NC(=O)[C@H](Cc1ccc(OCCNC(C)=O)cc1)NC(=O)[C@@H]1CSCC[C@H](NC(C)=O)C(=O)N[C@@H](CCC(N)=O)C(=O)N[C@@H]([C@@H](C)O)C(=O)N[C@@H](Cc2c[nH]c3ccccc23)C(=O)N[C@@H](CCC(N)=O)C(=O)N1)C(=O)N[C@@H](CCC(=O)O)C(=O)N[C@@H](CC(N)=O)C(=O)N[C@@H](CCC(N)=O)C(N)=O (Ac-[Abu(4-yl)]QTWQC[AEF](Ac)[2Nal][αMeK](Ac)ENQ-NH2; thioether 1-6)
// result < 0.01 µM

// query Provide IC50, recorded with UniProt:Q5VWK5, of CC(=O)N[C@H](C(=O)N[C@@H](CCC(N)=O)C(=O)N[C@H](C(=O)N[C@@H](Cc1c[nH]c2ccccc12)C(=O)N[C@@H](CCC(N)=O)C(=O)N[C@H](C(=O)N[C@@H](Cc1ccc(Cl)c(Cl)c1)C(=O)N[C@@H](Cc1ccc2ccccc2c1)C(=O)N[C@@](C)(CCCN)C(=O)N[C@@H](CCC(=O)O)C(=O)N[C@@H](CC(N)=O)C(=O)NCC(N)=O)C(C)(C)S)[C@@H](C)O)C(C)(C)S
// result 0.1 to 1 µM

Further cases:
// query Provide IC50, recorded with UniProt:Q5VWK5, of CC(C)[C@H](NC(=O)[C@H](Cc1c[nH]c2ccccc12)NC(=O)[C@H](CC(=O)O)NC(=O)[C@H](C)NC(=O)[C@@H](N)CS)C(=O)N[C@@H](CS)C(=O)N[C@@H](Cc1ccc(O)cc1)C(=O)N[C@@H](Cc1c[nH]c2ccccc12)C(=O)N[C@@H](Cc1cnc[nH]1)C(=O)N[C@H](C(=O)N[C@@H](Cc1ccccc1)C(N)=O)[C@@H](C)O
// result > 1 µM

// query Provide IC50, recorded with UniProt:Q5VWK5, of CC(=O)N[C@@H](CS)C(=O)N[C@@H](CCC(N)=O)C(=O)N[C@@H](CC(=O)O)C(=O)N[C@@H](Cc1c[nH]c2ccccc12)C(=O)N[C@@H](CCC(N)=O)C(=O)N[C@@H](CS)C(=O)N[C@@H](Cc1ccc(O)cc1)C(=O)N[C@@H](Cc1c[nH]c2ccccc12)C(=O)N[C@@H](CCCNC(=N)N)C(=O)N[C@@H](CCC(=O)O)C(=O)N[C@@H](CC(N)=O)C(=O)NCC(=O)NCCOCC(=O)N[C@H](CCCCN)C(N)=O
// result < 0.5 µM

// query Provide IC50, recorded with UniProt:Q5VWK5, of CC(=O)NCCCC[C@H](NC(=O)[C@](C)(CCCCN)NC(=O)[C@H](Cc1ccc2ccccc2c1)NC(=O)[C@H](Cc1c(C)cc(O)cc1C)NC(=O)[C@@H]1CSCC[C@H](NC(C)=O)C(=O)N[C@@H](CCC(N)=O)C(=O)N[C@@H]([C@@H](C)O)C(=O)N[C@@H](Cc2c[nH]c3ccccc23)C(=O)N[C@@H](CCC(N)=O)C(=O)N1)C(=O)N[C@@H](CC(N)=O)C(=O)NCC(N)=O
// result > 1 µM
